For each record, write down the corresponding GI50.
# System: HCT-15
# method-summary: In vitro cytotoxicity against human colon cancer HCT 15 cell line
# Format: functional
Write the number in nM without appending the unit.

Ask: Recorded GI50 for COc1cc([C@@H]2c3cc4c(cc3[C@H](O)[C@H]3COC(=O)[C@H]23)OCO4)cc(OC)c1OC , please?
Reply: 20

Ask: I have this compound here, CCCOC(=O)[C@@H]1[C@H](c2cc(OC)c(OC)c(OC)c2)c2cc3c(cc2[C@H](O)[C@H]1CO)OCO3 , and I need its recorded GI50.
Reply: 1400

Ask: Param item = CCOC(=O)[C@@H]1[C@H](c2cc(OC)c(O)c(OC)c2)c2cc3c(cc2[C@@H]2OC(=O)OC[C@@H]12)OCO3 ; retrieve measured GI50.
Reply: 400

Ask: Find the recorded GI50 belonging to CCOC(=O)[C@@H]1[C@H](c2cc(OC)c(OC)c(OC)c2)c2cc3c(cc2[C@H](O)[C@H]1CO)OCO3 and report it.
Reply: 13000

Ask: Please look up its GI50: CCOC(=O)[C@@H]1[C@H](c2cc(OC)c(O)c(OC)c2)c2cc3c(cc2[C@H](O)[C@H]1CO)OCO3
Reply: 2070

Ask: Query (compound): CCOC(=O)[C@@H]1C(c2cc(OC)c(OC)c(OC)c2)c2cc3c(cc2[C@@H]2OC(=O)OC[C@@H]12)OCO3 (some centres not stated) ; field requested: GI50
Reply: 200
